System: COLO 205 colon
Experiment: NCI tumour cell line growth inhibition, 48 h
Please go through the items and note down their TGI.
// units = µM; emit number, no label

Query: Checklist item: TGI tested on COLO 205 colon, entry CC1(c2ccccc2)CCN(C2CC2)CO1 (configuration not stated) , value?
Reply: 39.8

Query: Checklist item: TGI tested on COLO 205 colon, entry `COc1ccc(/C=C/c2cc(OC)c(OC)c(OC)c2)cc1O[Si](C)(C)C(C)(C)C` , value?
Reply: 32.7

Query: Checklist item: TGI tested on COLO 205 colon, entry `CCn1c(=O)nc2n(-c3ccccc3)c3ccccc3nc-2c1=O` , value?
Reply: 16

Query: Checklist item: TGI tested on COLO 205 colon, entry `CC12c3c4cccc3Oc3cc(N)cc(c31)Oc1cc(N)cc(c12)O4` , value?
Reply: 12.1
